- Protocol notes: Liver Microsome stability (In Vitro Metabolism)
- Format: in vitro ADME
- Experimental conditions: Mouse liver microsomes, no cofactor 60 min
Property: Remaining (T = NCF60 min) (%)
Answers are plain numbers, in %.

INSERT INTO measurements (compound, recorded_number) VALUES
  ('CNC(=O)C1C(O)CC2(O)CC(O)CC(O)C(O)CCC(O)CC(O)CC(=O)OC(C)C(C)C(O)C(C)C=CC=CC=CC=CC=CC=CC=CC(OC3OC(C)C(O)C(N)C3O)CC1O2 (centres unmarked) [AN]', 131);

Turning to the following compound.
Give the measured Remaining (T = NCF60 min) of C[C@@H]1[C@H](O)[C@@H](C)/C=C/C=C/C=C/C=C/C=C/C=C/C=C/[C@H](OC2O[C@H](C)[C@@H](O)[C@H](N)[C@@H]2O)C[C@@H]2O[C@](O)(C[C@@H](O)C[C@@H](O)[C@H](O)CC[C@@H](O)C[C@@H](O)CC(=O)O[C@H]1C)C[C@H](O)[C@H]2C(=O)O (some centres unmarked) [AmB, Amphotericin B] . 93.1

====

- Protocol notes: Solubility in D5W
- Experimental conditions: 5% dextrose in water (D5W), saline or isotonic, thermodynamic from solid
Property: solubility (µM)
Give bare numbers, in µM.

Give the measured solubility of C[C@@H]1[C@H](O)[C@@H](C)/C=C/C=C/C=C/C=C/C=C/C=C/C=C/[C@H](OC2O[C@H](C)[C@@H](O)[C@H](N)[C@@H]2O)C[C@@H]2O[C@](O)(C[C@@H](O)C[C@@H](O)[C@H](O)CC[C@@H](O)C[C@@H](O)CC(=O)O[C@H]1C)C[C@H](O)[C@H]2C(=O)O (stereo partly shown) . 23

====

- Protocol notes: Liver Microsome stability (In Vitro Metabolism)
- Format: in vitro ADME
- Experimental conditions: Rat liver microsomes, no cofactor 60 min
Property: Remaining (T = NCF60 min) (%)
One number for each entry, in %.

Here are 4 compounds together with their reported answers.
INSERT INTO assay_data (compound, value_unit, recorded_number) VALUES
  ('CC1C=CC=CC=CC=CC=CC=CC=CC(OC2OC(C)C(O)C(N)C2O)CC2OC(O)(CC(O)CC(O)C(O)CCC(O)CC(O)CC(=O)OC(C)C(C)C1O)CC(O)C2C(=O)NCCN (centres unmarked)', '%', 83.1),
  ('COC(=O)C(Cc1c[nH]cn1)NC(=O)C1C(O)CC2(O)CC(O)CC(O)C(O)CCC(O)CC(O)CC(=O)OC(C)C(C)C(O)C(C)C=CC=CC=CC=CC=CC=CC=CC(OC3OC(C)C(O)C(N)C3O)CC1O2 (centres unmarked)', '%', 75.4),
  ('CC1C=CC=CC=CC=CC=CC=CC=CC(OC2OC(C)C(O)C(N)C2O)CC2OC(O)(CC(O)CC(O)C(O)CCC(O)CC(O)CC(=O)OC(C)C(C)C1O)CC(O)C2C(=O)NCCO (centres unmarked)', '%', 113),
  ('C[C@@H]1[C@H](O)[C@@H](C)/C=C/C=C/C=C/C=C/C=C/C=C/C=C/[C@H](OC2O[C@H](C)[C@@H](O)[C@H](N)[C@@H]2O)C[C@@H]2O[C@](O)(C[C@@H](O)C[C@@H](O)[C@H](O)CC[C@@H](O)C[C@@H](O)CC(=O)O[C@H]1C)C[C@H](O)[C@H]2C(=O)O (some centres unmarked)', '%', 111);

Turning to the following compound.
Give the measured Remaining (T = NCF60 min) of CNC(=O)C1C(O)CC2(O)CC(O)CC(O)C(O)CCC(O)CC(O)CC(=O)OC(C)C(C)C(O)C(C)C=CC=CC=CC=CC=CC=CC=CC(OC3OC(C)C(O)C(N)C3O)CC1O2 (centres unmarked) . 93

====

Give measured Remaining (T = 60 min) for each item. Keep answers brief.
- Protocol notes: Liver Microsome stability (In Vitro Metabolism)
- Type: in vitro ADME
- Experimental conditions: Mouse liver microsomes
Numbers only, in %.

Here are 2 compounds together with their reported answers.
INSERT INTO measurements (compound, value_unit, recorded_number) VALUES
  ('CNC(=O)C1C(O)CC2(O)CC(O)CC(O)C(O)CCC(O)CC(O)CC(=O)OC(C)C(C)C(O)C(C)C=CC=CC=CC=CC=CC=CC=CC(OC3OC(C)C(O)C(N)C3O)CC1O2 (stereo not drawn)', '%', 102),
  ('COC(=O)C(Cc1c[nH]cn1)NC(=O)C1C(O)CC2(O)CC(O)CC(O)C(O)CCC(O)CC(O)CC(=O)OC(C)C(C)C(O)C(C)C=CC=CC=CC=CC=CC=CC=CC(OC3OC(C)C(O)C(N)C3O)CC1O2 (stereo not drawn)', '%', 127);

Turning to the following compound.
Give the measured Remaining (T = 60 min) of CC1C=CC=CC=CC=CC=CC=CC=CC(OC2OC(C)C(O)C(N)C2O)CC2OC(O)(CC(O)CC(O)C(O)CCC(O)CC(O)CC(=O)OC(C)C(C)C1O)CC(O)C2C(=O)NCCN (stereo not drawn) . 109

====

- Test system: C. albicans SN250, C. albicans, C. krusei, C. glabrata, C. tropicalis, A. fumigatus 91, 1163, 1100
- Protocol notes: Average MIC over the tested strains
- Type: cell-based
- Experimental conditions: value of the corresponding AmB analogue, not of the C2’epi compound
Property: Average MIC for AmB analogue

Here are 3 compounds together with their reported answers.
INSERT INTO results (compound, property, result) VALUES
  ('CC1C=CC=CC=CC=CC=CC=CC=CC(OC2OC(C)C(O)C(N)C2O)CC2OC(O)(CC(O)CC(O)C(O)CCC(O)CC(O)CC(=O)OC(C)C(C)C1O)CC(O)C2C(=O)NCCN (centres unmarked)', 'Average MIC for AmB analogue', '0.563 μM'),
  ('CNC(=O)C1C(O)CC2(O)CC(O)CC(O)C(O)CCC(O)CC(O)CC(=O)OC(C)C(C)C(O)C(C)C=CC=CC=CC=CC=CC=CC=CC(OC3OC(C)C(O)C(N)C3O)CC1O2 (centres unmarked)', 'Average MIC for AmB analogue', '0.336 μM'),
  ('CC1C=CC=CC=CC=CC=CC=CC=CC(OC2OC(C)C(O)C(N)C2O)CC2OC(O)(CC(O)CC(O)C(O)CCC(O)CC(O)CC(=O)OC(C)C(C)C1O)CC(O)C2C(=O)NC1CC1 (centres unmarked)', 'Average MIC for AmB analogue', '0.500 μM');

Quick batch: Average MIC for AmB analogue for everything below.
1. CC1C=CC=CC=CC=CC=CC=CC=CC(OC2OC(C)C(O)C(N)C2O)CC2OC(O)(CC(O)CC(O)C(O)CCC(O)CC(O)CC(=O)OC(C)C(C)C1O)CC(O)C2C(=O)NCCO (centres unmarked)
2. CC1C=CC=CC=CC=CC=CC=CC=CC(OC2OC(C)C(O)C(N)C2O)CC2OC(O)(CC(O)CC(O)C(O)CCC(O)CC(O)CC(=O)OC(C)C(C)C1O)CC(O)C2C(=O)NC1CCC1 (centres unmarked)

1. 0.328 μM
2. 1.281 μM

====

- Protocol notes: UV-Vis sterol binding assay
Property: Cholesterol Binding

Here are 4 molecules together with their reported answers.
INSERT INTO assay_data (molecule, result) VALUES
  ('CNC(=O)C1C(O)CC2(O)CC(O)CC(O)C(O)CCC(O)CC(O)CC(=O)OC(C)C(C)C(O)C(C)C=CC=CC=CC=CC=CC=CC=CC(OC3OC(C)C(O)C(N)C3O)CC1O2 (centres unmarked) [BB]', 'No'),
  ('CC1C=CC=CC=CC=CC=CC=CC=CC(OC2OC(C)C(O)C(N)C2O)CC2OC(O)(CC(O)CC(O)C(O)CCC(O)CC(O)CC(=O)OC(C)C(C)C1O)CC(O)C2C(=O)NCCO (centres unmarked) [Compound BA]', 'No'),
  ('CC1C=CC=CC=CC=CC=CC=CC=CC(OC2OC(C)C(O)C(N)C2O)CC2OC(O)(CC(O)CC(O)C(O)CCC(O)CC(O)CC(=O)OC(C)C(C)C1O)CC(O)C2C(=O)NCCN (centres unmarked) [BC]', 'Yes?'),
  ('C[C@@H]1[C@H](O)[C@@H](C)/C=C/C=C/C=C/C=C/C=C/C=C/C=C/[C@H](OC2O[C@H](C)[C@@H](O)[C@H](N)[C@@H]2O)C[C@@H]2O[C@](O)(C[C@@H](O)C[C@@H](O)[C@H](O)CC[C@@H](O)C[C@@H](O)CC(=O)O[C@H]1C)C[C@H](O)[C@H]2C(=O)O (some centres unmarked) [AmB, Amphotericin B]', 'Yes');

Give the measured Cholesterol Binding of C[C@@H]1[C@H](O)[C@@H](C)/C=C/C=C/C=C/C=C/C=C/C=C/C=C/[C@H](O[C@@H]2O[C@H](C)[C@@H](O)[C@H](N)[C@H]2O)C[C@@H]2O[C@](O)(C[C@@H](O)C[C@@H](O)[C@H](O)CC[C@@H](O)C[C@@H](O)CC(=O)O[C@H]1C)C[C@H](O)[C@H]2C(=O)O [C2′epiAmB, C2′epi-Amphotericin B] . No

Data provenance is patent US20230016424A1.
